system: DNA; test: Dark complex formation (intercalation) with DNA in the ground state, binding parameters; details: relative (ang = 100)
Counter-ions that a name gives are not always drawn.
Parameter threshold = 200. Response is YES when K (association constants), relative meets or exceeds it, else NO.

[[record]]
molecule = "Cc1cc2occc2c2oc(=O)ccc12"
category = "YES"

[[record]]
molecule = "Cc1cc2c(cc(C)c3ccc(=O)oc32)o1"
category = "YES"

[[record]]
molecule = "Cc1cc2c(ccc3ccc(=O)oc32)o1"
category = "YES"

[[record]]
molecule = "COCc1c(C)oc2ccc3c(C)cc(=O)oc3c12"
category = "NO"

[[record]]
molecule = "COc1c2occc2cc2ccc(=O)oc12 [8-MOP, 8-methoxypsoralen, reference compound]"
category = "NO"

[[record]]
molecule = "Cc1oc2ccc3c(C)cc(=O)oc3c2c1CN [hydrochloride]"
category = "YES"

[[record]]
molecule = "Cc1cc2c(ccc3c(C)cc(=O)oc32)o1"
category = "YES"

[[record]]
molecule = "Cc1cc(=O)oc2c1ccc1occc12"
category = "YES"

[[record]]
molecule = "O=c1ccc2cc3ccoc3cc2o1 [psoralen, reference compound]"
category = "NO"

[[record]]
molecule = "O=c1ccc2ccc3occc3c2o1 [angelicin, reference compound]"
category = "NO"

[[record]]
molecule = "Cc1oc2ccc3c(C)cc(=O)oc3c2c1CO [4'-hydroxymethyl-4,5'-dimethylangelicin, 4,5'-dimethyl-4'-hydroxy-methylangelicin]"
category = "YES"

[[record]]
molecule = "Cc1oc2ccc3c(C)cc(=O)oc3c2c1COCCN(C)C"
category = "YES"


----------
tested on: skin; experiment: Relative skin phototoxicity; conditions: (psr = 100)
// values below are reported Relative skin phototoxicity
propertyLabel: Relative skin phototoxicity

[[record]]
compound = "O=c1ccc2cc3ccoc3cc2o1 [psoralen, reference compound]"
experimentaltarget = "skin"
propertylabel = "Relative skin phototoxicity"
result = 100

[[record]]
compound = "Cc1cc2c(ccc3c(C)cc(=O)oc32)o1 [4,5'-dimethylangelicin]"
experimentaltarget = "skin"
propertylabel = "Relative skin phototoxicity"
result = 0

[[record]]
compound = "Cc1oc2ccc3c(C)cc(=O)oc3c2c1COCCN(C)C"
experimentaltarget = "skin"
propertylabel = "Relative skin phototoxicity"
result = 0

[[record]]
compound = "Cc1cc2occc2c2oc(=O)ccc12 [5-methylangelicin]"
experimentaltarget = "skin"
propertylabel = "Relative skin phototoxicity"
result = 0


----------
test system: DNA; test: Dark complex formation (intercalation) with DNA in the ground state, binding parameters; conditions: in vitro, ground state; molecules bound per nucleotide
Where a name gives a salt, the structure may show the parent alone.
Categorized via 1/n (frequency of binding sites): low value: < 0.07; medium value: ≥ 0.07 and < 0.09; high value: ≥ 0.09

[[record]]
compound = "O=c1ccc2ccc3occc3c2o1 [angelicin, reference compound]"
category = "low value"

[[record]]
compound = "Cc1oc2ccc3c(C)cc(=O)oc3c2c1CN [hydrochloride]"
category = "high value"

[[record]]
compound = "Cc1cc2c(cc(C)c3ccc(=O)oc32)o1"
category = "medium value"

[[record]]
compound = "Cc1cc2c(ccc3ccc(=O)oc32)o1"
category = "medium value"

[[record]]
compound = "Cc1cc2c(ccc3c(C)cc(=O)oc32)o1"
category = "high value"

[[record]]
compound = "Cc1oc2ccc3c(C)cc(=O)oc3c2c1COCCN(C)C"
category = "high value"

[[record]]
compound = "Cc1cc(=O)oc2c1ccc1occc12"
category = "medium value"

[[record]]
compound = "COc1c2occc2cc2ccc(=O)oc12 [8-MOP, 8-methoxypsoralen, reference compound]"
category = "high value"

[[record]]
compound = "O=c1ccc2cc3ccoc3cc2o1 [psoralen, reference compound]"
category = "high value"

[[record]]
compound = "Cc1oc2ccc3c(C)cc(=O)oc3c2c1CO [4'-hydroxymethyl-4,5'-dimethylangelicin, 4,5'-dimethyl-4'-hydroxy-methylangelicin]"
category = "medium value"

[[record]]
compound = "COCc1c(C)oc2ccc3c(C)cc(=O)oc3c12"
category = "low value"


----------
tested on: DNA; experiment: Dark complex formation (intercalation) with DNA in the ground state, binding parameters; conditions: relative (ang = 100)
Counter-ions that a name gives are not always drawn.
propertyLabel: 1/n (frequency of binding sites), relative

[[record]]
molecule = "COc1c2occc2cc2ccc(=O)oc12 [8-MOP, 8-methoxypsoralen, reference compound]"
inequalitysymbol = "="
result = 203

[[record]]
molecule = "Cc1oc2ccc3c(C)cc(=O)oc3c2c1CO [4'-hydroxymethyl-4,5'-dimethylangelicin, 4,5'-dimethyl-4'-hydroxy-methylangelicin]"
inequalitysymbol = "="
result = 138

[[record]]
molecule = "Cc1cc2c(ccc3c(C)cc(=O)oc32)o1 [4,5'-dimethylangelicin]"
inequalitysymbol = "="
result = 149

[[record]]
molecule = "COCc1c(C)oc2ccc3c(C)cc(=O)oc3c12 [4'-methoxymethyl-4,5'-dimethylangelicin, 4,5'-dimethyl-4'-methoxymethylangelicin]"
inequalitysymbol = "="
result = 80

[[record]]
molecule = "Cc1oc2ccc3c(C)cc(=O)oc3c2c1COCCN(C)C"
inequalitysymbol = ">"
result = 230

[[record]]
molecule = "O=c1ccc2cc3ccoc3cc2o1 [psoralen, reference compound]"
inequalitysymbol = "="
result = 171

[[record]]
molecule = "O=c1ccc2ccc3occc3c2o1 [angelicin, reference compound]"
inequalitysymbol = "="
result = 100

[[record]]
molecule = "Cc1oc2ccc3c(C)cc(=O)oc3c2c1CN [hydrochloride]"
inequalitysymbol = "="
result = 404

[[record]]
molecule = "Cc1cc2occc2c2oc(=O)ccc12 [5-methylangelicin]"
inequalitysymbol = "="
result = 112

[[record]]
molecule = "Cc1cc2c(ccc3ccc(=O)oc32)o1 [5'-methylangelicin, 5'methylangelicin]"
inequalitysymbol = "="
result = 116

[[record]]
molecule = "Cc1cc2c(cc(C)c3ccc(=O)oc32)o1 [5,5'-dimethylangelicin]"
inequalitysymbol = "="
result = 135

[[record]]
molecule = "Cc1cc(=O)oc2c1ccc1occc12 [4-methylangelicin]"
inequalitysymbol = "="
result = 120


----------
system: DNA synthesis in Ehrlich ascites tumor cells; experiment: Inhibition of DNA synthesis (and DNA and RNA synthesis) on irradiation at 365 nm; format: cell-based; details: relative (ang = 100)
Structures can show the parent of a compound that is named as a salt.
propertyLabel: inhibition of DNA synthesis, relative

[[record]]
compound = "COCc1c(C)oc2ccc3c(C)cc(=O)oc3c12"
result = 110

[[record]]
compound = "Cc1oc2ccc3c(C)cc(=O)oc3c2c1CN [hydrochloride]"
result = 25

[[record]]
compound = "Cc1cc2c(ccc3ccc(=O)oc32)o1"
result = 150

[[record]]
compound = "Cc1cc2c(ccc3c(C)cc(=O)oc32)o1"
result = 230

[[record]]
compound = "O=c1ccc2cc3ccoc3cc2o1 [psoralen, reference compound]"
result = 275

[[record]]
compound = "COc1c2occc2cc2ccc(=O)oc12 [8-MOP, 8-methoxypsoralen, reference compound]"
result = 249

[[record]]
compound = "Cc1cc2occc2c2oc(=O)ccc12"
result = 275

[[record]]
compound = "Cc1oc2ccc3c(C)cc(=O)oc3c2c1COCCN(C)C"
result = 290

[[record]]
compound = "Cc1cc(=O)oc2c1ccc1occc12"
result = 104

[[record]]
compound = "Cc1cc2c(cc(C)c3ccc(=O)oc32)o1"
result = 180

[[record]]
compound = "Cc1oc2ccc3c(C)cc(=O)oc3c2c1CO [4'-hydroxymethyl-4,5'-dimethylangelicin, 4,5'-dimethyl-4'-hydroxy-methylangelicin]"
result = 272


----------
system: DNA; test: Photobinding to DNA, rate constants of the photoreactions; type: biochemical; details: relative (ang = 100)
Where a name gives a salt, the structure may show the parent alone.
propertyLabel: Rate constants of the photoreactions with DNA, relative

[[record]]
molecule = "COCc1c(C)oc2ccc3c(C)cc(=O)oc3c12"
result = 145

[[record]]
molecule = "COc1c2occc2cc2ccc(=O)oc12 [8-MOP, 8-methoxypsoralen, reference compound]"
result = 209

[[record]]
molecule = "Cc1cc2c(ccc3ccc(=O)oc32)o1"
result = 191

[[record]]
molecule = "Cc1cc2c(cc(C)c3ccc(=O)oc32)o1"
result = 248

[[record]]
molecule = "Cc1cc2occc2c2oc(=O)ccc12"
result = 298

[[record]]
molecule = "Cc1oc2ccc3c(C)cc(=O)oc3c2c1CN [hydrochloride]"
result = 72

[[record]]
molecule = "Cc1cc(=O)oc2c1ccc1occc12"
result = 146

[[record]]
molecule = "O=c1ccc2ccc3occc3c2o1 [angelicin, reference compound]"
result = 100

[[record]]
molecule = "O=c1ccc2cc3ccoc3cc2o1 [psoralen, reference compound]"
result = 345

[[record]]
molecule = "Cc1cc2c(ccc3c(C)cc(=O)oc32)o1"
result = 363


----------
test system: DNA; experiment: Photobinding to DNA, rate constants of the photoreactions; format: biochemical; details: in vitro, UV-A irradiated
propertyLabel: Rate constants of the photoreactions with DNA (K × 10^-2 × min^-1)

[[record]]
compound = "Cc1oc2ccc3c(C)cc(=O)oc3c2c1CO [4'-hydroxymethyl-4,5'-dimethylangelicin, 4,5'-dimethyl-4'-hydroxy-methylangelicin]"
unitabbrev = "K × 10^-2 × min^-1"
result = 3.2

[[record]]
compound = "COc1c2occc2cc2ccc(=O)oc12 [8-MOP, 8-methoxypsoralen, reference compound]"
unitabbrev = "K × 10^-2 × min^-1"
result = 2.3

[[record]]
compound = "O=c1ccc2ccc3occc3c2o1 [angelicin, reference compound]"
unitabbrev = "K × 10^-2 × min^-1"
result = 1.1

[[record]]
compound = "Cc1cc2c(ccc3c(C)cc(=O)oc32)o1"
unitabbrev = "K × 10^-2 × min^-1"
result = 4.0

[[record]]
compound = "Cc1cc2c(ccc3ccc(=O)oc32)o1"
unitabbrev = "K × 10^-2 × min^-1"
result = 2.11

[[record]]
compound = "O=c1ccc2cc3ccoc3cc2o1 [psoralen, reference compound]"
unitabbrev = "K × 10^-2 × min^-1"
result = 3.8

[[record]]
compound = "Cc1cc(=O)oc2c1ccc1occc12"
unitabbrev = "K × 10^-2 × min^-1"
result = 1.61

